- Organism: Rattus norvegicus
- METHOD: Open TG-GATES - Regimen: Daily Repeat
- Format: toxicity, organism-based, Sprague-Dawley
- Set-up: regimen Daily Repeat, gender Male, age 6 weeks
- COND: in vivo, po, 300 mg/kg, […], tissue Plasma, route gavage, dose level Middle, time 7 day
Listed molecules paired with reported LDH
Expressed in IU/L, but write only the number.

# count of solved cases: 3
>>> df
                                   molecule  observed_measurement
0  CCCCNC(=O)NS(=O)(=O)c1ccc(C)cc1 [TOLBUTAMIDE]                  57.4
1                   O=C(O)c1ccccc1Nc1ccccc1                   108
2    CC(S)C(=O)NCC(=O)O (centres undefined)                 150.2

Okay, next one:
"CC(=O)[C@@]1(O)CC[C@H]2[C@@H]3C=C(Cl)C4=CC(=O)CC[C@]4(C)[C@H]3CC[C@@]21C" yielded LDH of 198.8

###

- Organism: Rattus norvegicus
- METHOD: Open TG-GATES - Regimen: Daily Repeat
- Type: toxicity, organism-based, Sprague-Dawley
- Design: regimen Daily Repeat, gender Male, age 6 weeks
- COND: in vivo, po, 100 mg/kg, 72 h, tissue Blood, route gavage, dose level Low, time 3 day
Here the recorded MCHC is given for each entry.
Respond numerically; units are % and should not be typed.

Please review the following examples before continuing.
>>> print(df.to_string())
                                   compound  result_unit  observed_measurement
0                   O=C(O)c1ccccc1Nc1ccccc1            %                  33.4
1  CCCCNC(=O)NS(=O)(=O)c1ccc(C)cc1 [TOLBUTAMIDE]            %                  32.7
2    CC(S)C(=O)NCC(=O)O (centres undefined)            %                  33.2

Now for a further compound.
Sure, the documented MCHC for "CC(=O)[C@@]1(O)CC[C@H]2[C@@H]3C=C(Cl)C4=CC(=O)CC[C@]4(C)[C@H]3CC[C@@]21C" is 33.1

###

- Species: Rattus norvegicus
- METHOD: Open TG-GATES - Regimen: Daily Repeat
- Type: toxicity, organism-based, Sprague-Dawley
- Parameters: regimen Daily Repeat, gender Male, age 6 weeks
- COND: in vivo, po, 100 mg/kg, […], tissue Blood, route gavage, dose level Low, time 7 day
QUANTITY KIND: Hb
Report field: quantity (unit follows the number).

Worked examples, 3 molecules total:
>>> print(df.to_string())
                                   molecule  quantity_kind  observed_measurement
0  CC(=O)[C@@]1(O)CC[C@H]2[C@@H]3C=C(Cl)C4=CC(=O)CC[C@]4(C)[C@H]3CC[C@@]21C [CHLORMADINONE]             Hb             14.5 g/dL
1    O=C(O)c1ccccc1Nc1ccccc1 [FENAMIC ACID]             Hb             13.4 g/dL
2  CC(S)C(=O)NCC(=O)O (centres undefined) [TIOPRONIN]             Hb             13.5 g/dL

For reference, reported Hb for CCCCNC(=O)NS(=O)(=O)c1ccc(C)cc1 [TOLBUTAMIDE] stands at 13.6 g/dL

###

Measured gamma-GTP, listed per entry.
- Organism: Rattus norvegicus
- METHOD: Open TG-GATES - Regimen: Daily Repeat
- Type: toxicity, organism-based, Sprague-Dawley
- Design: regimen Daily Repeat, gender Male, age 6 weeks
- COND: in vivo, po, 300 mg/kg, 72 h, tissue Plasma, route gavage, dose level Middle, time 3 day
A number alone suffices; assume IU/L.

Consider CCCCNC(=O)NS(=O)(=O)c1ccc(C)cc1 [TOLBUTAMIDE] . Its measured gamma-GTP is 1

In plain terms, "O=C(O)c1ccccc1Nc1ccccc1" has a documented gamma-GTP of 1.6

Lab note: "CC(=O)[C@@]1(O)CC[C@H]2[C@@H]3C=C(Cl)C4=CC(=O)CC[C@]4(C)[C@H]3CC[C@@]21C" gave gamma-GTP of 1.4

Per the records, this compound ( CC(S)C(=O)NCC(=O)O (centres undefined) ) has gamma-GTP equal to 1.4

###

LDH reference
- Species: Rattus norvegicus
- METHOD: Open TG-GATES - Regimen: Daily Repeat
- Type: toxicity, organism-based, Sprague-Dawley
- Parameters: regimen Daily Repeat, gender Male, age 6 weeks
- COND: in vivo, po, 0 mg/kg, […], tissue Plasma, route gavage, dose level Control, time 7 day
Please state the figure in IU/L; there is no need to write the unit.

                                   compound  result_unit  observed_measurement
0  COc1ccc([C@@H]2Sc3ccccc3N(CCN(C)C)C(=O)[C@@H]2OC(C)=O)cc1         IU/L                    84
1                          O=c1ccc2ccccc2o1         IU/L                  79.6
2  CN(CCOc1ccc(CC2SC(=O)NC2=O)cc1)c1ccccn1.O=C(O)/C=C\C(=O)O (stereo not given) [ROSIGLITAZONE MALEATE]         IU/L                    79

Per the records, this compound ( CC(S)C(=O)NCC(=O)O (stereo not given) ) has LDH equal to 146.4

Sample "Nc1ccc(Cc2ccc(N)cc2)cc1" ; LDH observed: 65.6

###

- Organism: Rattus norvegicus
- METHOD: Open TG-GATES - Regimen: Daily Repeat
- Type: toxicity, organism-based, Sprague-Dawley
- Design: regimen Daily Repeat, gender Male, age 6 weeks
- COND: in vivo, po, 100 mg/kg, […], tissue Blood, route gavage, dose level Low, time 7 day
QUANTITY KIND: Ret (%)
Answer with a number only, understood to be in %.

Reference set (3 entries):
                                   molecule  observed_measurement
0    O=C(O)c1ccccc1Nc1ccccc1 [FENAMIC ACID]                   5.7
1  CCCCNC(=O)NS(=O)(=O)c1ccc(C)cc1 [TOLBUTAMIDE]                   5.4
2  CC(=O)[C@@]1(O)CC[C@H]2[C@@H]3C=C(Cl)C4=CC(=O)CC[C@]4(C)[C@H]3CC[C@@]21C [CHLORMADINONE]                   4.2

Attention now shifts to the item below.
Item: CC(S)C(=O)NCC(=O)O (centres undefined) [TIOPRONIN] | Ret: 6.1

###

- Species on record: Rattus norvegicus
- METHOD: Open TG-GATES - Regimen: Daily Repeat
- Assay type: toxicity, organism-based, Sprague-Dawley
- Set-up: regimen Daily Repeat, gender Male, age 6 weeks
- COND: in vivo, po, 0 mg/kg, 72 h, tissue Blood, route gavage, dose level Control, time 3 day
QUANTITY KIND: WBC (x10_2/uL)
I only need the number, in x10_2/uL, no unit after it.

Consider the reported WBC for these compounds:
In [3]: df
Out[3]:
                                   compound  quantity_kind  result_unit  observed_measurement
0                CCN(CC)C(=S)SSC(=S)N(CC)CC            WBC     x10_2/uL                  78.4
1  CN(CCOc1ccc(CC2SC(=O)NC2=O)cc1)c1ccccn1.O=C(O)/C=C\C(=O)O (configuration not stated) [ROSIGLITAZONE MALEATE]            WBC     x10_2/uL                    98
2  CC(S)C(=O)NCC(=O)O (configuration not stated) [TIOPRONIN]            WBC     x10_2/uL                 142.5

Query NS(=O)(=O)c1cc(C(=O)O)c(NCc2ccco2)cc1Cl [FUROSEMIDE] yields WBC of 92.7

Item: CC(=O)[C@@]1(O)CC[C@H]2[C@@H]3C=C(Cl)C4=CC(=O)CC[C@]4(C)[C@H]3CC[C@@]21C [CHLORMADINONE] | WBC: 122.2

According to the records, this compound O=C(O)c1ccccc1Nc1ccccc1 [FENAMIC ACID] displays WBC of 95.3

# compound O=c1ccc2ccccc2o1 [COUMARIN] ; its WBC = 95.9

Entry "Nc1ccc(Cc2ccc(N)cc2)cc1" , WBC reported as 93.3

Record CN(C/C=C/C#CC(C)(C)C)Cc1cccc2ccccc12 [TERBINAFINE] . Reported WBC: 104.3

Measured WBC of CCCCC1C(=O)N(c2ccccc2)N(c2ccccc2)C1=O [PHENYLBUTAZONE] : 131.2

Item: COc1ccc([C@@H]2Sc3ccccc3N(CCN(C)C)C(=O)[C@@H]2OC(C)=O)cc1 [DILTIAZEM] | WBC: 101.8

Data point: CCCCNC(=O)NS(=O)(=O)c1ccc(C)cc1 [TOLBUTAMIDE] ; WBC = 101.6
